Tested on: CP250
Experimental details: qHTS profiling for inhibitors of Plasmodium falciparum proliferation (AID 504749); also: nearly all actives have a fitted effect of over 60% in size; also: potency is read from the fitted curve at half-maximal effect
Condition: P. falciparum in erythrocytes, SYBR Green DNA, 72 h; series mostly up to 28.7 µM
Results filed as inconclusive are left out. Calls of active or inactive are those of the source. Calls follow the shape of the dose curve; as a rule, active = well fitted inhibition curve with a large enough effect; inconclusive = small, poorly fitted or top-dose-only effect; inactive = flat fitted curve, though single readings scatter.

Compound | Potency
COC(=O)C1C2CC3c4[nH]c5cc(OC)ccc5c4CCN3CC2CC(OC)C1OC (stereo not given) | inactive
OCC1OC(O)C(O)C(O)C1O (stereo not given) | inactive
Cc1cnc(NC(=O)C2C(=O)c3ccccc3S(=O)(=O)N2C)s1 (stereo not given) | inactive
CC(C)C[C@@H](NC(=O)[C@@H](Cc1ccccc1)NC(=O)c1cnccn1)B(O)O | 126 nM (active)
CO[C@H]1OC2O[C@@]3(C)CC[C@H]4[C@H](C)CC[C@@H]([C@H]1C)[C@@]24OO3 (stereo not given in full) | 63.1 nM (active)
COc1cccc2c1C(=O)c1c(O)c3c(c(O)c1C2=O)C[C@@](O)(C(=O)CO)C[C@@H]3OC1CC(N)C(O)C(C)O1 (stereo not given in full) | 2510 nM (active)
CCCCC(=O)OC1CCC2C3CCc4cc(O)ccc4C3CC[C@]12C (stereo not given in full) | inactive
CCOC(=O)C(CCc1ccccc1)NC(C)C(=O)N1Cc2cc(OC)c(OC)cc2CC1C(=O)O (stereo not given) | inactive
O=C(O)c1ccc(N[C@@H]2OC[C@@H](O)[C@@H](O)[C@@H]2O)cc1 | inactive
CC1(C)C2CC[C@]1(C)[C@@H](O)C2 | inactive
